- assay_text: melting temperature; fluorescence melt of hairpins on a sequencing array, two-state fit, raised by 9.35 °C to match UV melts
- measurement_context: sodium 0.088 M
quantity: Tm
The reply should read as a number followed by its unit.

Entry GCTCTCGAAAGAGAGAGC ((((((....)))..))) — recorded Tm = 57.2 °C

Form field Tm, entry GGCATTCGAAAGAAAGCC (((.(((....))).))) : 50.5 °C

What the record says about GGGGTCGAAAGACACCC ((((((....))).))) : Tm is 63.1 °C

Tm in this record for GCGTTCGAAAGAATGCGC ((((((....)))..))) : 57.3 °C

Record summary for GCCGTGCGAAAGCCAGGC (((..((....))..))) : reported Tm = 62.8 °C

Lab book: Tm of CGGGACGGAAACGTGCCG (((.(((....))).))) noted as 60.3 °C

Sure, the documented Tm for GTGCTGCGAAAGCACAC (((.(((....)))))) is 55.3 °C

Kindly note the recorded Tm for GCTGTCGGAAACGACGGC ((.((((....)))).)) , which is 64 °C

Documented Tm of GAAACCGAAAGGTTGTTC ((((((....)))..))) : 36.8 °C

Given item GGTTGCGAAAGCAAACC ((((((....))).))) , the value recorded as its Tm is 61.8 °C

Quick note, Tm for GTGCGTTCGAAAGAACAC (((..(((....)))))) landed at 54.1 °C

Form field Tm, entry GGGGACGGAAACGCCCCC ((((.((....)).)))) : 57.9 °C

// GCACACGAAAGTGTTTGC ((((((....)))..))) : Tm value = 39.6 °C

Looking up GCACTCGGAAACGAGCAC (..((((....))))..) , I found its Tm recorded as 29.3 °C

Recorded Tm (sequence GGTGACGGAAACGTCATC (.(((((....))))).) ): 54.1 °C

Reported Tm of GCCATGCGAAAGCGAGGC (((..((....))..))) : 60 °C

Summary for this sequence, GCGTAACCACGC ((((....)))) : Tm is 54.8 °C

Short answer for CCTTAGAAATAAGG (((((....))))) : Tm was 28.6 °C

Documented Tm of GCTCGGCGAAAGCCTTGC ((..(((....)))..)) : 50.2 °C

Measured Tm of CGCTCGGAAACGAGTGCG ((((((....)))..))) : 44.9 °C

So for GGTTTTCGAAAGAAGACC (((.(((....))).))) , the logged Tm turned out to be 48.1 °C

Lab note: measured Tm of GTATGAGGAAACTCACAC ((.((((....)))).)) was 29.4 °C

Entry under test: CGGAGTCGGAAACGACCG (((..(((....)))))) . Its Tm was 41.3 °C

Entry GCTATCCGAAAGGACAGC (((.(((....))).))) ; Tm = 49 °C

Note to self: Tm recorded for GTGATGGGAAACCATTGC (..((((....))))..) was 33.7 °C

GET /value?item= GATCTACTGCTAGATC ((((((....)))))) &field=Tm returns 40.1 °C

In plain terms, GCAGACGCGAAAGCGTGC (((..(((....)))))) has a documented Tm of 52 °C

Record summary for CGGACGCGGAAACGCCCG (((..(((....)))))) : reported Tm = 48.8 °C

Lookup result for GATCAGAAATGATC (((((....))))) ; measured Tm: 41.1 °C

Recorded Tm (sequence GAGGAAGGAAACCTCCTC (((((.(....).))))) ): 36.6 °C

Summary for this sequence, GGGCCCGAAAGGGAGCCC ((((((....)))..))) : Tm is 62.3 °C

Value of Tm reported for the sequence GTGAATGCGAAAGCACAC (((..(((....)))))) is 40.7 °C

Record GCCATATCGAAAGATGGC (((..(((....)))))) , field Tm: 48.2 °C

Notebook: GCAGCTCGAAAGAGATGC (((.(((....))).))) , Tm read as 68.6 °C

Tm in this record for GGTTTGCGAAAGCAACC (((.(((....)))))) : 52.4 °C

// recorded Tm for GTGAGTGGAAACACTCAC (((((((....))))))) : 66.2 °C

So, GAGACGGGAAACCGTCCC (.(((((....))))).) ? Its Tm was 43.8 °C

// sample GCACGACCGAAAGGTTGC (((..(((....)))))) , its Tm was 38.1 °C

Tm reported for this sequence GGGAAAGGAAACTCTCCC ((((.((....)).)))) : 30.2 °C

Tm measured on GCCTGCGAAAGCACCGGC ((((((....)))..))) = 46.6 °C

Tm recorded for this sequence, GGACCCGAAAGGGAATCC ((((((....)))..))) , is 34.6 °C

Note to self: Tm recorded for CGGTTTCGGAAACGACCG (((..(((....)))))) was 38 °C

Given item GCCGCTGGAAACAACGGC ((((.((....)).)))) , the value recorded as its Tm is 54.3 °C

Tm reading for GCAGAGCGAAAGCCCGGC ((.(.((....)).).)) : 44.8 °C

So for GCAAGGCGAAAGCCTCGC ((.((((....)))).)) , the logged Tm turned out to be 59.3 °C

Measured Tm of GTCTCATCGAAAGATGAC (((..(((....)))))) : 35.4 °C

Input GGGCCCGGAAACGGACCC (((.(((....))).))) . Output Tm: 58.8 °C

Looking up GGCATCGAAAGATAAGCC ((((((....)))..))) , I found its Tm recorded as 44.7 °C

The value of Tm measured for the sequence GGTCCCGAAAGGGCAACC ((((((....)))..))) turned out to be 38.4 °C

What the record says about GCACCAGGAAACTGGTAC (.(((((....))))).) : Tm is 39.6 °C

This collection of values is drawn from the array DNA melting data of Ke et al. (doi:10.1101/2024.01.08.574731).
